- target_under_test: T1, human angiotensin 2 type 1 receptor (human, UniProt P30556 1-359)
- T1 sequence (looked up): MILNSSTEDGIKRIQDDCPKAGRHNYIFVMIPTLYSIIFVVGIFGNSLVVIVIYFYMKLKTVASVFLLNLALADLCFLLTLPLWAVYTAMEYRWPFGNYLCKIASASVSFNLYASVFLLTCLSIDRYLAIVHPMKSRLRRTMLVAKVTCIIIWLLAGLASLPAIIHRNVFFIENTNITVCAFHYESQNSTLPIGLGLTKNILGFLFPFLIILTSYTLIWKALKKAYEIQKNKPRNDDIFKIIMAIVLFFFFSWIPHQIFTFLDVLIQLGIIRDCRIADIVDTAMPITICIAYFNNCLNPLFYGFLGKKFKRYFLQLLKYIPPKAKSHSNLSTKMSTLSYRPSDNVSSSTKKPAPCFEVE
- assay_notes: cell-based or functional assay
Where no end group is shown, it is not given here. [ ]: non-standard residue; d: D form. Ac6c = NC1(C(=O)O)CCCCC1; Sar = CNCC(=O)O
Measured IP1 G-protein assay pEC50, listed per entry.

A selection of reference data follows.
binder	IP1 G-protein assay pEC50
[Sar]RVY[Ac6c]HPS [SEQ ID NO: 15 (Sar-Arg-Val-Tyr-cyHex-His-Pro-Ser)]	> 9.2
[Sar]RVY[Ac6c]HPL [SEQ ID NO: 12 (Sar-Arg-Val-Tyr-cyHex-His-Pro-Leu)]	< 9.2
[Sar]RVY[Ac6c]HPP [SEQ ID NO: 39 (Sar-Arg-Val-Tyr-cyHex-His-Pro-Pro)]	< 9.2

Alright, here's another binder for you.
Entry [Sar]RVY[Ac6c]HPY [SEQ ID NO: 55 (Sar-Arg-Val-Tyr-cyHex-His-Pro-Tyr)] ; IP1 G-protein assay pEC50 = < 9.2
